# systemUnderTest: PDZ3 (PSD-95) (Homo sapiens)
# Sequence (P78352 313-393 limits assumed): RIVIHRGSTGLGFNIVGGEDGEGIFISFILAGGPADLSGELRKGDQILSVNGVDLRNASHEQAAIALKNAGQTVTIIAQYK
# procedureText: FP displacement (competition) of FITC-15 AA CRIPT by library peptide, IC50 and Ki
# conditionLabel: Ki, FP displacement of 5 nM FITC-15 AA CRIPT by non-labeled acetylated peptide, room temperature, Ki from IC50, technical triplicates; PDZ3

[
  {
    "smilesData": "CC[C@H](C)[C@H](NC(=O)[C@H](CO)NC(=O)[C@H](CCC(N)=O)NC(=O)[C@H](CCCNC(=N)N)NC(=O)[C@H](CCCCN)NC(=O)[C@H](CO)NC(=O)[C@H](CC(=O)O)NC(=O)[C@@H]1CCCN1C(=O)[C@H](Cc1ccc(O)cc1)NC(C)=O)C(=O)N[C@@H](CC(C)C)C(=O)N[C@@H](Cc1ccccc1)C(=O)N[C@@H](CO)C(=O)N[C@H](C(=O)N[C@@H](CCC(=O)O)C(=O)N[C@H](C(=O)O)C(C)C)[C@@H](C)O",
    "systemUnderTest": "PDZ3 (PSD-95) (Homo sapiens)",
    "Ki": "< 75 µM"
  }
]

----------
Parameter IC50: see the listing below.
# systemUnderTest: PSG G322A (PSD-95)
# procedureText: FP displacement (competition) of FITC-15 AA CRIPT by library peptide, IC50 and Ki
# conditionLabel: read-out: IC50 (µM), PSG G322A; FP displacement of FITC-15 AA CRIPT probe by acetylated PSD library peptide

[
  {
    "molecule": "CC(=O)N[C@@H](Cc1ccc(O)cc1)C(=O)N[C@@H](C)C(=O)N[C@@H](CO)C(=O)N[C@@H](CC(N)=O)C(=O)N[C@H](C(=O)N[C@@H](CC(N)=O)C(=O)N[C@H](C(=O)N[C@@H](CC(C)C)C(=O)N[C@@H](CC(N)=O)C(=O)N[C@@H](CCCNC(=N)N)C(=O)N[C@@H](CCCCN)C(=O)N[C@H](C(=O)N[C@H](C(=O)N1CCC[C@H]1C(=O)N[C@H](C(=O)O)C(C)C)[C@@H](C)O)[C@@H](C)O)[C@@H](C)O)[C@@H](C)O [CCG8]",
    "unitAnnotation": "µM",
    "IC50": 15
  },
  {
    "molecule": "CC(=O)N[C@@H](Cc1ccc(O)cc1)C(=O)N[C@H](C(=O)N[C@@H](CCC(=O)O)C(=O)N[C@@H](CO)C(=O)N[C@@H](CCCCN)C(=O)N[C@@H](CCCCN)C(=O)N[C@@H](Cc1c[nH]cn1)C(=O)NCC(=O)N[C@@H](CCCNC(=N)N)C(=O)N[C@@H](Cc1c[nH]c2ccccc12)C(=O)N[C@@H](CCCCN)C(=O)N[C@@H](CC(C)C)C(=O)N[C@@H](Cc1c[nH]c2ccccc12)C(=O)N[C@@H](Cc1ccccc1)C(=O)N[C@@H](CC(C)C)C(=O)O)[C@@H](C)O [INSY2]",
    "unitAnnotation": "µM",
    "IC50": 83
  },
  {
    "molecule": "CC(=O)N[C@@H](Cc1ccc(O)cc1)C(=O)N[C@H](C(=O)N[C@@H](CCC(=O)O)C(=O)N[C@@H](CO)C(=O)N[C@@H](CC(C)C)C(=O)N[C@@H](CO)C(=O)N[C@@H](CO)C(=O)N[C@@H](CCC(=O)O)C(=O)N[C@@H](CO)C(=O)N[C@H](C(=O)N[C@@H](C)C(=O)N[C@H](C(=O)N[C@@H](CO)C(=O)N1CCC[C@H]1C(=O)N[C@H](C(=O)O)C(C)C)[C@@H](C)O)[C@@H](C)O)C(C)C [TNR16]",
    "unitAnnotation": "µM",
    "IC50": 867
  }
]
